Origin of values: patent US6127119

# Assayed System: Fibrinogen (Homo sapiens, UniProt P02671-2;P02675;P02679-2 P02671-2:20-644,P02675:31-491,P02679-2:27-437)
# Sequence (P02671 other isoform, or with tags, fused parts or gaps, chain 1 of 3): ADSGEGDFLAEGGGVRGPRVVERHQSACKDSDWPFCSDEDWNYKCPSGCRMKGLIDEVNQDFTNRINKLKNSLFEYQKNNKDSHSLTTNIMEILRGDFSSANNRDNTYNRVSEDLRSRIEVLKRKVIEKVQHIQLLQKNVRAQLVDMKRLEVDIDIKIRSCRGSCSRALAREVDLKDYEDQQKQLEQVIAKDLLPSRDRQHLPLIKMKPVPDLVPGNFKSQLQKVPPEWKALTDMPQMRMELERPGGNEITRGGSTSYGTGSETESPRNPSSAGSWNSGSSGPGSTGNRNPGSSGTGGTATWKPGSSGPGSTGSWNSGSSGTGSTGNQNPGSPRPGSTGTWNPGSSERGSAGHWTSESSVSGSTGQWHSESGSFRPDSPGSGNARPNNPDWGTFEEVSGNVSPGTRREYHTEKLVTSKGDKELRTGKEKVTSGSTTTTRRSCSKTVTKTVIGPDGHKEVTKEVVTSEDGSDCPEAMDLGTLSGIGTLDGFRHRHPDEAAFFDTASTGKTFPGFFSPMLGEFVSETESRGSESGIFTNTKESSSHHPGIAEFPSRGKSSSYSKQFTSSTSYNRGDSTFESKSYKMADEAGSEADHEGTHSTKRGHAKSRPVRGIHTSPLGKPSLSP
# Sequence (P02675 31-491, chain 2 of 3): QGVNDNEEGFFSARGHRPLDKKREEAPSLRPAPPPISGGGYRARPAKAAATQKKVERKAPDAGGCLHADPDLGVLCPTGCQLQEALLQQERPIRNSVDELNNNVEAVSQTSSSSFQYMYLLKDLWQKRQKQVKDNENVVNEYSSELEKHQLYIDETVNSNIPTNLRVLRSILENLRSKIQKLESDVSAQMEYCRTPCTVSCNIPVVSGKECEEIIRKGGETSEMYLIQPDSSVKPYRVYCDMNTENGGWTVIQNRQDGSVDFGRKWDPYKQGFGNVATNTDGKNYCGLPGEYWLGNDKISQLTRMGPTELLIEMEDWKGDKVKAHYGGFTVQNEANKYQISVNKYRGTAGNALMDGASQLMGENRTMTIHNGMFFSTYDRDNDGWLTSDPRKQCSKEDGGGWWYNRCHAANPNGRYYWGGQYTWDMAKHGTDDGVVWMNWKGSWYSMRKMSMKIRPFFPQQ
# Sequence (P02679 other isoform, or with tags, fused parts or gaps, chain 3 of 3): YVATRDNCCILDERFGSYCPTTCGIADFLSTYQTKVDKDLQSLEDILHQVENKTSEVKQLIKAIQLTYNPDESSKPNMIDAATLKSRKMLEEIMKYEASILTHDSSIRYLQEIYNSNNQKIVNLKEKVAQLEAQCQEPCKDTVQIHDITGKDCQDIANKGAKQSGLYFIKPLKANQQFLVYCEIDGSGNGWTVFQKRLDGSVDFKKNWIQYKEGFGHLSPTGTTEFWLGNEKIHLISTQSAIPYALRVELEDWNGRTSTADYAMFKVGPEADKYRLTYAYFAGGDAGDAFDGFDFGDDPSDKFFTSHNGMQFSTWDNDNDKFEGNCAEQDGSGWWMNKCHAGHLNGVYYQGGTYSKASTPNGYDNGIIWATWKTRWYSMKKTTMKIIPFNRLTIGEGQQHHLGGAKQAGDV
# Protocol Description: filter; low class; printed l mM, probably uM
# Condition Set: chain copies: 2
pKd: −log10 of the molar value.
// values below are reported pKd

Binder	pKd
FCN27 (ssRNA, 2'-F pyrimidines) RNA: GGGAGAUAAGAAUAAACGCUCAAAAAGUCGUGUGCGAGAGGCUCAGAUUUAAUGCGGAGGAUUCGACAGGAGGCUCACAACAGGC	< 6.00
FCN18 (ssRNA, 2'-F pyrimidines) RNA: GGGAGAUAAGAAUAAACGCUCAAAUGAACGACCGCGGGCAGUCGCGUUCAAAUGAGUGGUUUUUUCGACAGGAGGCUCACAACAGGC	< 6.00
FCN56 (ssRNA, 2'-F pyrimidines) RNA: GGGAGAUAAGAAUAAACGCUCAACGGCUCGAUGCUAGCUGGGACGGCUCAUUGAGACUGGUUGUUCGACAGGAGGCUCACAACAGGC	< 6.00
FCN52 (ssRNA, 2'-F pyrimidines) RNA: GGGAGAUAAGAAUAAACGCUCAAAGCCGAGCUAAUCCCGAAAGUGACCCGGAACGACGCGGCAUUCGACAGGAGGCUCACAACAGGC	< 6.00
FC34 (ssRNA, 2'-F pyrimidines) RNA: GGGAGAUAAGAAUAAACGCUCAAAAGGCCGAACAACGAAGUUUGAUUCAGGUACUCAGCGUUCUUCGACAGGAGGCUCACAACAGGC	< 6.00
